Target: LC3B R70A (human, UniProt Q9GZQ8 1-120, R70A)
Experiment: ITC; MicroCal iTC200, 25 °C; proteins 0.25 mmol/L and peptides 3 mmol/L, dialyzed against buffer B (20 mmol/L Tris-HCl, 200 mmol/L NaCl, 1 mmol/L EDTA, pH 8.0); single binding site model
Details: both partners purified
Non-standard residues stand in square brackets, D forms with d. No end group written: not given here. pS = N[C@@H](COP(=O)(O)O)C(=O)O
reported_property: pKd
By convention, pKd is the negative base-10 log of a molar concentration.

Answer with the recorded pKd of DYESDDD[pS]YEVLDLTE (also called FUNDC1 pS17; FUNDC1 pS17 peptide; source: synthetic peptide (GL Biochem, Shanghai)) [FUNDC1 LIR peptide 10-25 phosphorylated at Ser17] only.
4.80
